assayed-target: human STING (Homo sapiens)
Sequence (Q86WV6 whole entry H232R): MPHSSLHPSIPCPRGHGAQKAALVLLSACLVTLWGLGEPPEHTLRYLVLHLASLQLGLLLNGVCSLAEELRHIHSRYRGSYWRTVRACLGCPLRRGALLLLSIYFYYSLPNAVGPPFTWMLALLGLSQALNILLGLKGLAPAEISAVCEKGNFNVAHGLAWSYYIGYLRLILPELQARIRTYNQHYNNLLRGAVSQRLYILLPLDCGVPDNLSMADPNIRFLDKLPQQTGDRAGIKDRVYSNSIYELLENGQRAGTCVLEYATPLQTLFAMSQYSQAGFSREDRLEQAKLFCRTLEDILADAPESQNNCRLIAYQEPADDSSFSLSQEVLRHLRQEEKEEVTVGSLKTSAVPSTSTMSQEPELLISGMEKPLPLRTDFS
protocol-text: Fluorescence Thermal Shift assay (binding to STING)
measurement-conditions: STING 0.1 mg/mL, SyproOrange, 25 to 99° C.
endpoint: hSTING FTS binding assay (ΔT C. °)

The following compounds have reported results that may help.
Cc1cc(CN(Cc2cn(C3COC3)c3ccccc3c2=O)[C@H]2CCCN(c3ccc(N)nc3)C2)ccn1 ... +++ (+++=ΔTm ≥20° C.)
Cc1ccc(N2CCC[C@H](N(Cc3ccnc(C)c3)Cc3cn(C4CC4)c4cc(NC(=O)CN)c(F)cc4c3=O)C2)cn1 ... +++ (+++=ΔTm ≥20° C.)
Cc1ccc(N2CCC[C@H](N(Cc3ccnc(C)c3)Cc3cn(C4CC4)c4nc(N5CC[C@@H](O)C5)c(F)cc4c3=O)C2)cn1.Cl ... +++ (+++=ΔTm ≥20° C.)
Cc1ccc(N2CCC[C@H](N(Cc3ccnc(C)c3)Cc3cn(C)c4cc(N5CC[C@@H](O)C5)ccc4c3=O)C2)cn1 ... ++ (++=10<ΔTm <20° C.)
Cc1ccc(N2CCC[C@H](N(Cc3ccnc(C)c3)Cc3cn(C4CC4)c4cc(N5CC[C@@H](N)C(F)(F)C5)c(F)cc4c3=O)C2)cn1.Cl (single isomer, unassigned) ... +++ (+++=ΔTm ≥20° C.)
Cc1ccc(N2CCC[C@H](N(Cc3ccnc(C)c3)Cc3cn(C4CC4)c4cc(N5CCC[C@H](O)C5)c(F)cc4c3=O)C2)cn1.Cl ... +++ (+++=ΔTm ≥20° C.)

Query string: So what hSTING FTS binding assay (ΔT C. °) did Cc1ccc(N2CCC[C@H](N(Cc3ccnc(C)c3)Cc3cn(C)c4cc(N5CCC(N)CC5)ccc4c3=O)C2)cn1.Cl get with human STING (Homo sapiens)?
Result string: ++ (++=10<ΔTm <20° C.)

Query string: Param readout= hSTING FTS binding assay (ΔT C. °); system= human STING (Homo sapiens); entry= Cc1ccc(N2CCC[C@H](N(Cc3ccnc(C)c3)Cc3cn(C4CC4)c4cc(N5CC[C@H](N)C(F)(F)C5)c(F)cc4c3=O)C2)cn1.Cl (single isomer, unassigned) ; returns value.
Result string: +++ (+++=ΔTm ≥20° C.)

Query string: API: value(readout=hSTING FTS binding assay (ΔT C. °), system=human STING (Homo sapiens)) for record Cc1cc(CN(Cc2cn(C3CC3)c3cc(N4CC[C@@H](O)C4)c(F)cc3c2=O)[C@H]2CCCN(c3cccnc3)C2)ccn1
Result string: +++ (+++=ΔTm ≥20° C.)

Query string: Given the entry Cc1cc(CN(Cc2cn(C(C)C)c3cc(F)c(F)cc3c2=O)[C@H]2CCCN(c3ccc(N)nc3)C2)ccn1.Cl , what hSTING FTS binding assay (ΔT C. °) was observed with human STING (Homo sapiens)?
Result string: +++ (+++=ΔTm ≥20° C.)

Query string: Please provide the recorded hSTING FTS binding assay (ΔT C. °) for Cc1cc(CN(Cc2cn(C)c3cc(N4CCC(C(=O)O)CC4)ccc3c2=O)[C@H]2CCCN(c3cccnc3)C2)ccn1 , tested on human STING (Homo sapiens).
Result string: ++ (++=10<ΔTm <20° C.)

Query string: Form field: hSTING FTS binding assay (ΔT C. °) recorded for Cc1cc(CN(Cc2cn(C(C)C)c3ccccc3c2=O)[C@H]2CCCN(c3ccc(N)nc3)C2)ccn1.Cl with human STING (Homo sapiens) (enter value)
Result string: +++ (+++=ΔTm ≥20° C.)
